Every entry's value here was drawn from PubChem BioAssay (NCI).

system: SK-OV-3 ovarian; assay: NCI tumour cell line growth inhibition, 48 h
Measured TGI by item
Reply with just the number (in µM).

Q: Item `CN(CCNC(=O)c1cn(C)c2c1ccc1cc(Cl)c(Cl)cc12)CCNC(=O)c1cn(C)c2c1ccc1cc(Cl)c(Cl)cc12` has what recorded TGI?
Ans: 4.59

Q: Item Nc1ccc(C2=CC(c3ccc(Cl)cc3)N3C=CSC3=N2)cc1 (stereo not given) has what recorded TGI?
Ans: 25.5

###

test system: MCF7 breast; experiment: NCI tumour cell line growth inhibition, 48 h
property: TGI

Example entries and their recorded answers appear below.
compound	TGI
Cc1cccc2nc3ccccc3c(Nc3ccc(NS(C)(=O)=O)cc3)c12	21.7 µM
COc1ccc2c(c1)nc(C(=O)c1ccco1)c(C(F)(F)F)[n+]2[O-]	> 100 µM
CC(C)=CCC/C(C)=C/COc1c2ccoc2cc2oc(=O)ccc12	61.4 µM

Q: Item COc1ccc(N=NC(=O)NC(CC(C)C)C(N)=O)cc1 (stereo not drawn) has what recorded TGI?
Ans: > 31.6 µM

Q: Item `CCOC(=O)c1nc2ccc(C(F)(F)F)cc2nc1Nc1ccc(Cl)c(Cl)c1` has what recorded TGI?
Ans: > 100 µM

Q: Item `O=C(/C=C(\S/C=C(/c1ccccc1)N1CCn2c(C(=O)c3ccccc3)c(C(=O)c3ccccc3)c(C(=O)c3ccccc3)c21)C(=O)c1ccccc1)c1ccccc1` has what recorded TGI?
Ans: > 10 µM

Q: Item `NCCCC[C@@H]1NC(=O)[C@H](CC(=O)O)NC(=O)CNC(=O)[C@H](CCCN=C(N)N)NC(=O)[C@@H](N)CSSC[C@@H](C(=O)O)NC(=O)[C@H](CC(=O)O)NC(=O)[C@@H]2CCCN2C(=O)CNC1=O` has what recorded TGI?
Ans: > 100 µM

Q: Item `COC(=O)c1ccc(CN2C(=O)C(Cl)=C(Nc3cccc(Cl)c3C)C2=O)cc1` has what recorded TGI?
Ans: > 100 µM

###

system: SW-620 colon; experiment: NCI tumour cell line growth inhibition, 48 h
property: TGI

Example entries and their recorded answers appear below.
compound	TGI
O=c1[nH]c2ccccc2nc1/C=C(\O)c1ccccc1O	> 100 µM
CC(=O)Oc1ccc2c(c1)CC[C@@H]1C2[C@@H](O[N+](=O)[O-])C[C@@]2(C)C1CC[C@@H]2O[N+](=O)[O-] (stereo not given in full)	33.1 µM
CCOC(=O)Nc1ccc2c(c1)c(CCCCCCc1nc3ccccc3c3ccc(NC(=O)OCC)cc13)nc1ccccc12	> 100 µM

Q: Item `NNC(=S)NCCNC(=S)NN` has what recorded TGI?
Ans: > 100 µM

Q: Item COC(=O)C1=C(O)[C@H](C(=O)OC)C2(O)C(C(=O)OC)[C@H](c3ccc(OC(=O)C(C)c4ccc(CC(C)C)cc4)cc3)C[C@@H]1[C@@H]2C(=O)OC (stereo not given in full) has what recorded TGI?
Ans: > 50 µM

###

system: HCT-116 colon; assay: NCI tumour cell line growth inhibition, 48 h; in the data active = GI50 below about 0.43 µM; inactive = the rest
Output constraint: value belongs to active, inactive

molecule	group
Nc1nc([Se])c2ncn(C3OC(CO)C(O)C3O)c2n1 (stereo not given)	inactive
Cc1csc2[n+]1-c1ccccc1N(C(=O)Nc1ccccc1)C(C)C2 (stereo not given)	inactive
NC(=O)c1cc([N+](=O)[O-])c(Cl)c([N+](=O)[O-])c1Cl	active
CC1=C2[C@@H](CC1)[C@]1(C)O[C@@](C(C)C)(C[C@H]1OC(=O)CO)[C@H]2OC(=O)C1CC1c1ccccc1 (stereo not given in full)	inactive
Cc1ccc(/C=N/Nc2nc(Nc3ccccc3)nc(-n3nc(C)cc3C)n2)cc1	inactive

Q: For `COc1ncc(Nc2ncc([C@@H](C)N3CCN(S(C)(=O)=O)CC3)cc2-c2nc(C)nc(N)n2)cc1F` , which call appears in the assay record?
Ans: inactive

Q: For `CCOC(=O)c1cc2c(cc1Cl)SC(=Nc1ccccc1)N(S(=O)(=O)c1ccc(Cl)cc1)S2(=O)=O` , which call appears in the assay record?
Ans: inactive

Q: For `CNC(=O)c1c(NC(=O)c2ccc(C(C)(C)C)cc2)sc2c1CCC(=O)C2` , which call appears in the assay record?
Ans: active

Q: For COC(=O)C1=C(O)[C@H](C(=O)OC)C2(O)C(C(=O)OC)[C@H](c3ccc(OC(=O)C(C)c4ccc(CC(C)C)cc4)cc3)C[C@@H]1[C@@H]2C(=O)OC (stereo not given in full) , which call appears in the assay record?
Ans: inactive

Q: For CC1=C(SCCC(=O)OC(C[Se]C2=C(C)C(=O)c3ccccc3C2=O)C(=O)NCCCCCC(=O)OCc2ccccc2)C(=O)c2ccccc2C1=O (stereo not given) , which call appears in the assay record?
Ans: inactive

###

Measured TGI by item
test system: NCI-H23 lung; assay: NCI tumour cell line growth inhibition, 48 h

Example entries and their recorded answers appear below.
compound	experimental system	TGI
Nc1[nH]nc2nc3ccccc3nc12	NCI-H23 lung	> 100 µM
CN(C)c1ccc(/C=C(\NC(=O)c2ccccc2)C2=NC(CCC(=O)O)C(=O)O2)cc1 (stereo unspecified)	NCI-H23 lung	> 50 µM
NCCCC[C@@H]1NC(=O)[C@H](CC(=O)O)NC(=O)CNC(=O)[C@H](CCCN=C(N)N)NC(=O)[C@@H](N)CSSC[C@@H](C(=O)O)NC(=O)[C@H](CC(=O)O)NC(=O)[C@@H]2CCCN2C(=O)CNC1=O	NCI-H23 lung	> 100 µM
O=C(/C=C\c1ccc([N+](=O)[O-])cc1)c1ccccc(=O)c1O	NCI-H23 lung	12.4 µM
O=C(Nc1cccc(O)c1)c1ccc(NC2=C(Cl)C(=O)N(Cc3ccc(Cl)cc3Cl)C2=O)cc1	NCI-H23 lung	36.1 µM
COc1ccc(CN2c3ccccc3Sc3ccccc32)c(C(F)(F)F)c1	NCI-H23 lung	93.4 µM

// next item, TGI requested
Q: Test system NCI-H23 lung; read-out TGI; what value for `CN(CCNC(=O)c1cn(C)c2c1ccc1cc(Cl)c(Cl)cc12)CCNC(=O)c1cn(C)c2c1ccc1cc(Cl)c(Cl)cc12` ?
Ans: 22 µM

###

test system: SF-295 CNS; assay: NCI tumour cell line growth inhibition, 48 h
Measured GI50 by item

Example entries and their recorded answers appear below.
compound	GI50
Cn1cc(-c2ccc3cc(-c4ccc(CC(=O)Nc5cc(C(C)(C)C)on5)cc4)cnc3c2)cn1	1.65 µM
COc1cc(Nc2ncc(-c3ccccc3)o2)cc(OC)c1	> 25 µM
CNC(=O)c1c(NC(=O)c2ccc(C(C)(C)C)cc2)sc2c1CCC(=O)C2	0.334 µM

Q: Item `NC(=O)c1cc([N+](=O)[O-])c(Cl)c([N+](=O)[O-])c1Cl` has what recorded GI50?
Ans: 3.29 µM

Q: Item O=C1CC(c2cccc(F)c2)Nc2cc3c(cc21)OCO3 (stereo not given) has what recorded GI50?
Ans: < 0.01 µM

Q: Item CC1=C(SCCC(=O)OC(C[Se]C2=C(C)C(=O)c3ccccc3C2=O)C(=O)NCCCCCC(=O)OCc2ccccc2)C(=O)c2ccccc2C1=O (stereo not given) has what recorded GI50?
Ans: 2.49 µM

Q: Item CC(N)(Cc1c[nH]c2cccc(F)c12)C(=O)O (stereo not given) has what recorded GI50?
Ans: > 1000 µM

Q: Item `Cc1ccccc1NC(=O)c1sc2nc(C)c(C(=O)/C=C/c3ccccc3)cc2c1N` has what recorded GI50?
Ans: 2.43 µM

Q: Item `CNC(=O)c1c(NC(=O)c2ccc(C(C)(C)C)cc2)sc2c(CN(C)C)c(O)ccc12` has what recorded GI50?
Ans: 1.86 µM

Q: Item `CCN(Cc1ccccc1)C1CCN(Cc2cc(Br)ccc2O)CC1` has what recorded GI50?
Ans: 25.6 µM

###

system: SN12C renal; assay: NCI tumour cell line growth inhibition, 48 h
Measured TGI by item
Reply with just the number (in µM).

Example entries and their recorded answers appear below.
compound	property	quantitative result
COc1ccc2c(c1)c(-c1nc(-c3c[nH]c4ccncc34)cs1)cn2C	TGI	3.24
Clc1cccc(NN=Nc2ccc(-c3nc4ccccc4s3)cc2)c1	TGI	62.2

// next item, TGI requested
Q: Item C=C1CC(Cn2ccc(=O)[nH]c2=O)(c2ccc(Cl)cc2)OC1=O (stereo not given) has what recorded TGI?
Ans: 28.1

###

tested on: SN12C renal; assay: NCI tumour cell line growth inhibition, 48 h
property: TGI (µM)
Reply with just the number (in µM).

compound smiles	TGI (µM)
O=C(Nc1cccc(O)c1)c1ccc(NC2=C(Cl)C(=O)N(Cc3ccc(Cl)cc3Cl)C2=O)cc1	4.09

// next item, TGI requested
Q: Item `CNC(=O)c1c(NC(=O)c2ccc(C(C)(C)C)cc2)sc2c1CCC(=O)C2` has what recorded TGI?
Ans: 1.4
